molecular target: GABAA receptor α4β3δ (Homo sapiens, UniProt P28472+P48169); construct: expressed in transfected cells; host or cells: CHO cells (transient, lipofection); experiment: Patch clamp electrophysiology, manual patch in CHO cells; assay type: cell-based; settings: 10 μM test article, GABA EC20 2 μM, read-out: GABA (α4β3δ) Manual patch in CHO, % efficacy at 10 μM
Sequence (P48169 36-554): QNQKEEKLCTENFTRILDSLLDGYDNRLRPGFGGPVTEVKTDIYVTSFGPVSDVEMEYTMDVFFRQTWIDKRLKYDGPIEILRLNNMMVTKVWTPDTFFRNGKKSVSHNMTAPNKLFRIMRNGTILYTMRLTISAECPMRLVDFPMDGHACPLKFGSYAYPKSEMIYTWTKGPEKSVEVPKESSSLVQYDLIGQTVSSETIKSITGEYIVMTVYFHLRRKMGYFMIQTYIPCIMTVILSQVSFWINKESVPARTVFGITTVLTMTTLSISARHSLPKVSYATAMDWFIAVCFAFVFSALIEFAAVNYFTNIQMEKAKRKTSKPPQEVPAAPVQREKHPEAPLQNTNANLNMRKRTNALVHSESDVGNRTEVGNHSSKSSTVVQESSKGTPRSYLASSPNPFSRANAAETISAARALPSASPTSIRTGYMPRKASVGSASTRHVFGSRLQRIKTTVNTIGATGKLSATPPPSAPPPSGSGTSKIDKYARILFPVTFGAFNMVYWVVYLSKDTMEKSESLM
Sequence (P28472 26-473): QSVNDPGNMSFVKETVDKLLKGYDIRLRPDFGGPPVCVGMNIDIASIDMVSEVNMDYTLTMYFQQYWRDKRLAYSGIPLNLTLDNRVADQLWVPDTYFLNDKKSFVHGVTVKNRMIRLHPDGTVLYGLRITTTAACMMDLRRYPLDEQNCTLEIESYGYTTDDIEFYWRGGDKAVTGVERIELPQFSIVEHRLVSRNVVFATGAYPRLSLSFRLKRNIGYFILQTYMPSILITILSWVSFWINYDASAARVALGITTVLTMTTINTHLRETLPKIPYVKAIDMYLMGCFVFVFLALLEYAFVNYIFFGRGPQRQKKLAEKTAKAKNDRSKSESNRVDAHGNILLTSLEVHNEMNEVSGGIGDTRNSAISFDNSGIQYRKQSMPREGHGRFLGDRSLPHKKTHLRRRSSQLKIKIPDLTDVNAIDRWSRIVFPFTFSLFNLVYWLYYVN
Sequence (O14764 25-452 partner): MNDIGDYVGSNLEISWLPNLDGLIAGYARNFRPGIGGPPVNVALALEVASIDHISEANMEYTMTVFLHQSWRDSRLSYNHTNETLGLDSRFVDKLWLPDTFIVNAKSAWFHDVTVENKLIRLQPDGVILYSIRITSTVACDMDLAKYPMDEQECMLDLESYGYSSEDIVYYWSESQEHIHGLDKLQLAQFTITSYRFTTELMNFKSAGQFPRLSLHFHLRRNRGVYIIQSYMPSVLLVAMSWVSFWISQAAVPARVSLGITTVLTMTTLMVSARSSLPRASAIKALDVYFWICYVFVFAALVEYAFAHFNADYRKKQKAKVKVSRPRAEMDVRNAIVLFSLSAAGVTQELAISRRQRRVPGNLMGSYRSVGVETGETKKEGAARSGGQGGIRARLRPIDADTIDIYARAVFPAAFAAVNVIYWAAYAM

Line notation	Emax at 10 µM
C[C@@]1(O)CC[C@H]2[C@H](CC[C@@H]3[C@@H]2CC[C@]2(C)[C@@H](C(=O)Cn4ccc(C#N)n4)CC[C@@H]32)C1	100 to 500%
C[C@@]1(O)CC[C@@H]2[C@H]3CC[C@]4(C)[C@@H](C(=O)Cn5cc(S(C)(=O)=O)cn5)CC[C@H]4[C@@H]3C[C@@H](F)[C@H]2C1	> 500%
Cc1cnn(CC(=O)[C@H]2CC[C@H]3[C@@H]4CC[C@@H]5C[C@](C)(O)CC[C@@H]5[C@H]4CC[C@]23C)c1	> 500%
COC[C@@]1(O)CC[C@H]2[C@H](CC[C@@H]3[C@@H]2CC[C@]2(C)[C@@H](C(=O)Cn4cc(C#N)cn4)CC[C@@H]32)C1	> 500%
C[C@@]1(O)CC[C@@H]2[C@H]3CC[C@]4(C)[C@@H](C(=O)Cn5cccn5)CC[C@H]4[C@@H]3C[C@@H](F)[C@H]2C1	100 to 500%
COC[C@@]1(O)CC[C@H]2[C@@H](CC[C@@H]3[C@@H]2CC[C@]2(C)[C@@H](C(=O)Cn4cc(C#N)cn4)CC[C@@H]32)C1	100 to 500%

# credit: patent US12201640B2
